Reference source: patent US7951827B2

experiment: Cytotoxicity to VERO cells; type: cell-based, African green monkey (Cercopithecus Aethiops); conditions: African green monkey (Cercopithecus aethiops), IC50 (μM) Cytotoxicity VERO cells
Counter-ions that a name gives are not always drawn.
Reported property: IC50 (µM)
Provide the reading as a plain figure in µM.

# annotated cases, reported IC50 shown
> print(dat)
                                   compound  reported.result
1  COc1cc(C(=N)N)ccc1-c1cc(-c2cccc(C(=N)N)c2)no1.Cl.Cl [Compound 18, dihydrochloride]              177
2  N=C(N)c1ccc(-c2cc(-c3ccc(C(=N)N)cc3Cl)no2)cc1 [Compound 10, dihydrochloride]             5.69
3  COc1cc(C(=N)N)ccc1-c1cc(-c2ccc(C(=N)N)cc2OC)on1 [Compound 12, dihydrochloride]             84.8
4  Cl.Cl.N=C(N)c1cccc(-c2cc(-c3ccc(C(=N)N)cc3Cl)no2)c1 [Compound 28, dihydrochloride]             87.4

Give its IC50 value. Item: COc1cc(C(=N)N)ccc1-c1cc(-c2cc(C(=N)N)ccc2OC)on1.Cl.Cl [Compound 31, dihydrochloride]
191

Give its IC50 value. Item: Cl.Cl.N=C(N)c1cccc(-c2cc(-c3cc(C(=N)N)ccc3[N+](=O)[O-])no2)c1 [Compound 38, dihydrochloride]
177

Give its IC50 value. Item: Cl.Cl.N=C(N)c1ccc(-c2cc(-c3cc(C(=N)N)ccc3Cl)on2)cc1 [Compound 25, dihydrochloride]
71.4

Give its IC50 value. Item: Cl.N=C(N)c1ccc(-c2cc(-c3ccccc3)no2)cc1 [Compound 1, hydrochloride]
19.1

Give its IC50 value. Item: Cl.Cl.N=C(N)c1cccc(-c2cc(-c3ccc(C(=N)N)cc3[N+](=O)[O-])no2)c1 [Compound 27, dihydrochloride]
206

Give its IC50 value. Item: COc1ccc(C(=N)N)cc1-c1cc(-c2cccc(C(=N)N)c2)no1.Cl.Cl [Compound 37, dihydrochloride]
124

Give its IC50 value. Item: N=C(N)c1ccc(-c2cc(-c3ccc(C(=N)N)cc3)on2)cc1 [Compound 3, dihydrochloride]
2.13

Give its IC50 value. Item: COc1ccc(C(=N)N)cc1-c1cc(-c2cc(C(=N)N)ccc2OC)on1.Cl.Cl [Compound 41, dihydrochloride]
79.9

Give its IC50 value. Item: CC(C)NC(=N)c1ccc(-c2cc(-c3ccc(C(=N)NC(C)C)cc3)on2)cc1.Cl.Cl [Compound 4, dihydrochloride]
176

Give its IC50 value. Item: COc1cc(C(=N)N)ccc1-c1cc(-c2ccc(C(=N)N)cc2)no1 [Compound 8, dihydrochloride]
122

Give its IC50 value. Item: Cl.Cl.N=C(N)c1ccc(-c2cc(-c3ccc(C(=N)N)cc3Cl)on2)cc1 [Compound 7, dihydrochloride]
41

====

experiment: Cytotoxicity to VERO cells; format: cell-based, African green monkey (Cercopithecus Aethiops); details: African green monkey (Cercopithecus aethiops), IC50 (μM) Cytotoxicity VERO cells
Structures can show the parent of a compound that is named as a salt.
Reported property: IC50 (µM)
Provide the reading as a plain figure in µM.

# annotated cases, reported IC50 shown
> print(dat)
                                   molecule  reported.property  unit.descriptor  reported.result
1  N=C(N)c1ccc(-c2cc(-c3ccccc3)on2)cc1 [Compound 2, 3-(4-Amidinophenyl)-5-phenylisoxazole]               IC50               µM             18.5
2  N=C(N)c1cccc(-c2cc(-c3cc(C(=N)N)ccc3Cl)no2)c1 [Compound 39, dihydrochloride]               IC50               µM             55.5
3  COc1ccc(C(=N)N)cc1-c1cc(-c2ccc(C(=N)N)cc2)no1.Cl.Cl [Compound 26, dihydrochloride]               IC50               µM             52.8

Give its IC50 value. Item: Cl.Cl.N=C(N)c1cccc(-c2cc(-c3cccc(C(=N)N)c3)on2)c1 [Compound 32, dihydrochloride]
153

====

system: Trypanosoma brucei brucei; assay: In vitro antiprotozoal activity against Trypanosoma brucei brucei; type: cell-based; conditions: Trypanosoma brucei; read-out: IC50 values against T. brucei brucei
Where a name gives a salt, the structure may show the parent alone.
Overview of recorded IC50 for various molecules

> print(dat)
                                   molecule             assayed.target  reported.result
1  COc1cc(C(=N)N)ccc1-c1cc(-c2cccc(C(=N)N)c2)on1.Cl.Cl [Compound 29, dihydrochloride]  Trypanosoma brucei brucei      3.5 to 9 nM
2  COc1cc(C(=N)N)ccc1-c1cc(-c2cccc(C(=N)N)c2)no1.Cl.Cl [Compound 18, dihydrochloride]  Trypanosoma brucei brucei           6.5 nM
3  COc1ccc(C(=N)N)cc1-c1cc(-c2cccc(C(=N)N)c2)no1.Cl.Cl [Compound 37, dihydrochloride]  Trypanosoma brucei brucei      3.5 to 9 nM
4  COc1cc(C(=N)N)ccc1-c1cc(-c2cc(C(=N)N)ccc2OC)on1.Cl.Cl [Compound 31, dihydrochloride]  Trypanosoma brucei brucei      3.5 to 9 nM
5  Cl.Cl.N=C(N)c1cccc(-c2cc(-c3cccc(C(=N)N)c3)on2)c1 [Compound 32, dihydrochloride]  Trypanosoma brucei brucei            29 nM

Give its IC50 value. Item: N=C(N)c1ccc(-c2cc(-c3cccc(C(=N)N)c3)no2)cc1 [Compound 13, dihydrochloride]
3.5 to 9 nM

Give its IC50 value. Item: Cl.Cl.N=C(N)c1cccc(-c2cc(-c3ccc(C(=N)N)cc3[N+](=O)[O-])on2)c1 [Compound 16, dihydrochloride]
3.5 to 9 nM

====

tested on: VERO cells; assay: Cytotoxicity to VERO cells; type: cell-based, African green monkey (Cercopithecus Aethiops)
Reported property: toxicity (VERO cells) in words

# annotated cases, reported toxicity (VERO cells) in words shown
> print(dat)
                                 cpd.smiles  reported.result
1  CC(C)NC(=N)c1ccc(-c2cc(-c3cccc(C(=N)NC(C)C)c3)on2)cc1.Cl.Cl    very nontoxic
2  CC(C)NC(=N)c1cccc(-c2cc(-c3cccc(C(=N)NC(C)C)c3)on2)c1.Cl.Cl    very nontoxic
3  CC(C)NC(=N)c1ccc(-c2cc(-c3cccc(C(=N)NC(C)C)c3)no2)cc1.Cl.Cl    very nontoxic
4  Cl.Cl.N=C(N)c1cccc(-c2cc(-c3ccc(C(=N)N)cc3[N+](=O)[O-])no2)c1     low toxicity
5  Cl.Cl.N=C(N)c1cccc(-c2cc(-c3cc(C(=N)N)ccc3Cl)on2)c1     low toxicity
6  CC(C)NC(=N)c1ccc(-c2cc(-c3ccc(C(=N)NC(C)C)cc3)on2)cc1.Cl.Cl    very nontoxic

Give its toxicity (VERO cells) in words value. Item: `Cl.Cl.N=C(N)c1cccc(-c2cc(-c3cc(C(=N)N)ccc3[N+](=O)[O-])no2)c1`
low toxicity

Give its toxicity (VERO cells) in words value. Item: `Cl.Cl.N=C(N)c1cccc(-c2cc(-c3cccc(C(=N)N)c3)on2)c1`
low toxicity

====

test: Cytotoxicity to VERO cells; type: cell-based, African green monkey (Cercopithecus Aethiops); conditions: African green monkey (Cercopithecus aethiops), IC50 (μM) Cytotoxicity VERO cells
Where a name gives a salt, the structure may show the parent alone.
Overview of recorded IC50 for various compounds
Provide the reading as a plain figure in µM.

> print(dat)
                                   compound  reported.property  reported.result
1  COc1cc(C(=N)N)ccc1-c1cc(-c2ccc(C(=N)N)cc2)on1.Cl.Cl [Compound 11, dihydrochloride]               IC50             92.6
2  Cl.Cl.N=C(N)c1ccc(-c2cc(-c3ccc(C(=N)N)cc3[N+](=O)[O-])no2)cc1 [Compound 9, dihydrochloride]               IC50             22.2
3  COc1cc(C(=N)N)ccc1-c1cc(-c2cccc(C(=N)N)c2)on1.Cl.Cl [Compound 29, dihydrochloride]               IC50              136
4  Cl.Cl.N=C(N)c1cccc(-c2cc(-c3cc(C(=N)N)ccc3Cl)on2)c1 [Compound 36, dihydrochloride]               IC50              109
5  COc1ccc(C(=N)N)cc1-c1cc(-c2ccc(C(=N)N)cc2[N+](=O)[O-])no1.Cl.Cl [Compound 30, dihydrochloride]               IC50              116

Give its IC50 value. Item: Cl.Cl.N=C(N)c1cccc(-c2cc(-c3ccc(C(=N)N)cc3Cl)on2)c1 [Compound 17, dihydrochloride]
82.7

Give its IC50 value. Item: CC(C)NC(=N)c1ccc(-c2cc(-c3cccc(C(=N)NC(C)C)c3)on2)cc1.Cl.Cl [Compound 23, dihydrochloride]
186

Give its IC50 value. Item: N=C(N)c1ccc(-c2cc(-c3cccc(C(=N)N)c3)no2)cc1 [Compound 13, dihydrochloride]
24.1
